System: SF-268 CNS
measurement-description: NCI tumour cell line growth inhibition, 48 h; in the data active = GI50 below about 0.43 µM; inactive = the rest
Choose the fitting class; nothing outside active, inactive is accepted.

Example entries begin here.
>>> class_assignment("Nc1ccn([C@@H]2S[C@H](CO)[C@@H](O)[C@@H]2F)c(=O)n1")
"active"
>>> class_assignment("CCOC(=O)C1=C(C)N(Cc2ccc(Cl)cc2Cl)[C@]2(C#N)C(O)=C(Cl)C(Cl)=C(O)[C@]12C#N")
"inactive"
>>> class_assignment("O=C(Nc1nc2c(s1)CCc1c-2c(Br)n(Cc2ccccc2)c1Br)c1ccccc1")
"inactive"

Now for a further compound.
Tell me the assay call for CC1(C)CC(O)CC(C)(C)N1.CC1(C)CC(O)CC(C)(C)N1.CC1(C)CC(O)CC(C)(C)N1.CC1(C)CC(O)CC(C)(C)N1.Cl.[Ti] please.
inactive

---

System: COLO 205 colon
measurement-description: NCI tumour cell line growth inhibition, 48 h
attribute-measured: TGI

>>> result("Cc1cc(OC(=O)c2c(C)cc(OC(=O)c3c(C)cc(O)cc3O)cc2O)cc(O)c1C(=O)O")
"> 100 µM"
>>> result("CC1=NN(C(=O)c2ccc(C)cc2)C(=O)C1N=Nc1ccccc1C(=O)O (stereo unspecified)")
"> 100 µM"
>>> result("Cc1ccccc1CNc1c2ccccc2nc2ccccc12")
"3.5 µM"

response.value for CC(C)=NNc1ncnc2nc[nH]c12 (field: TGI) = 59.5 µM

response.value for COC(=O)[C@]1(C)CCCC2(C)C3=C(CCC21)CC1(CC3)SCCS1 (stereo partly specified) (field: TGI) = > 10 µM

response.value for O=c1c2ccccc2n2cnc3ccc(NCCNCCO)c1c32 (field: TGI) = 5.09 µM

---

Test system: HCT-15 colon
measurement-description: NCI tumour cell line growth inhibition, 48 h; in the data active = GI50 below about 0.43 µM; inactive = the rest
Choose the fitting class; nothing outside true (active), false (inactive) is accepted.

Example entries begin here.
>>> class_assignment("COC(=O)C1=Nc2ccc(F)cc2/C1=C/c1sc(=S)[nH]c1O")
"true"
>>> class_assignment("Cc1ccc(O)cc1Nc1ccnc2cc(-c3ccccn3)ccc12")
"false"
>>> class_assignment("O=C1c2ccccc2-c2c1c1ccc([N+](=O)[O-])cc1c(=O)n2CCCCl")
"false"

Tell me the assay call for COC(=O)c1ccc2c(c1)C(=O)c1c-2n(CCCCl)c(=O)c2cc(OC)c(OC)cc12 please.
false

Tell me the assay call for COc1ccc(C(=O)/C=C/c2ccc(OCc3ccccc3)c(OC)c2)cc1OC please.
false

---

Tested on: SR leukemia
measurement-description: NCI tumour cell line growth inhibition, 48 h
attribute-measured: TGI

Here's what some known entries look like.
>>> result("COC(=O)[C@]1(C)[C@H]2C[C@H]3O[C@H]4[C@H](O)[C@@H](O)OC(CC(O)C(C5=CC(=O)OC5)C(C5=CC(=O)OC5)C(O)CC56CCCCC7[C@@H](C)[C@H](C[C@H]8[C@](C)(C(=O)OC)[C@H](O)CC[C@]78C)O[C@H]([C@@H](O)[C@H](O)O5)[C@H]6O)(CCCCC([C@@H]3C)[C@]2(C)CC[C@@H]1O)[C@H]4O (stereo partly drawn)")
"0.253 µM"
>>> result("COc1ccc(C(=O)/C=C/c2ccc(OCc3ccccc3)c(OC)c2)cc1OC")
"> 100 µM"
>>> result("Cc1n(Cc2ccc3ccccc3n2)cc[n+]1Cc1ccc2ccccc2c1")
"3.24 µM"

Simply: Cn1c(CC(O)c2nc3ccccc3n2C)nc2ccccc21 (stereo not drawn) , SR leukemia, TGI = > 100 µM

Simply: CC(C)(CC1(C)NC(=O)NC1=O)OCc1ccccc1 (stereo not drawn) , SR leukemia, TGI = > 100 µM

Simply: CC1=C2CC(C)(C)CC(=O)C2(C)CCC1=O (stereo not drawn) , SR leukemia, TGI = > 100 µM

Simply: CCOc1cc(/C=C/C(=O)CC(=O)/C=C/c2ccc(OC(=O)CNCCN(CC)CC)c(OCC)c2)ccc1OC(=O)CNCCN(CC)CC , SR leukemia, TGI = 1.63 µM

---

System: HOP-92 NSCLC
measurement-description: NCI tumour cell line growth inhibition, 48 h
attribute-measured: TGI

Here's what some known entries look like.
>>> result("COc1cccc(/C=N/[N-]C(N)=O)c1[O-].[OH3+].[Pd+2]")
"> 100 µM"
>>> result("Nc1ncnc2sc(Nc3ccccc3)nc12")
"> 100 µM"
>>> result("CCN(CC)CCS(=O)(=O)CCNc1ccnc2cc(Cl)ccc12")
"7.39 µM"
>>> result("C1=C(c2ccccc2)C(OC2Oc3ccccc3C=C2c2ccccc2)Oc2ccccc21 (stereo unspecified)")
"> 100 µM"
>>> result("CCOC(=O)C(C)(Cc1ccc(O)cn1)NC(=O)c1ccccc1 (stereo unspecified)")
"> 100 µM"
>>> result("Fc1ccc(C(OCCN2CC3CC2CN3)c2ccc(F)cc2)cc1 (stereo unspecified)")
"> 100 µM"
>>> result("O=CC(O)C(O)C(OC1OC(CO)C(O)C(O)C1O)C(O)CO (stereo unspecified) (tested in a mixture with another compound)")
"> 100 µM"
>>> result("CSC1(Cc2ccccn2)C(=O)Nc2cccc([N+](=O)[O-])c21 (stereo unspecified)")
"> 100 µM"

response.value for Cc1cc2c3c(c1)CCCN3CCC2 (field: TGI) = > 10 µM

response.value for Cc1ccc(NC2=CC(=O)C(=O)c3ccccc32)c(C)c1 (field: TGI) = 42.3 µM

response.value for CCOC(=O)C1=C(C)N(Cc2ccc(Cl)cc2Cl)[C@]2(C#N)C(O)=C(Cl)C(Cl)=C(O)[C@]12C#N (field: TGI) = 44.2 µM

---

Test system: TK-10 renal
measurement-description: NCI tumour cell line growth inhibition, 48 h
Reported TGI values for the following compounds.

response.value for CN(c1ccc(NC(=O)NCCN2CCOCC2)cc1)c1ccnc(Nc2ccc(CS(C)(=O)=O)cc2)n1 (field: TGI) = > 25 µM

---

System: RPMI-8226 leukemia
measurement-description: NCI tumour cell line growth inhibition, 48 h
attribute-measured: TGI

Here's what some known entries look like.
>>> result("CCN(CC)Cc1cc(Nc2cc(C(F)(F)F)c(C#N)c3nc4ccccc4n23)ccc1O")
"4.96 µM"
>>> result("CC(=O)OC1COC(Oc2c(C)c3c4c(c2O)[C@@H](C)CC[C@@H]4[C@@H](C)C[C@H]3C=C(C)C)C(O)C1O (stereo partly specified)")
"39.5 µM"
>>> result("CC(N)=O.[Cl][Pt][Cl].[NH-]c1ccn(C2OC(CO)C(O)C2O)c(=O)n1 (stereo unspecified)")
"> 100 µM"

response.value for Clc1ccc(-c2nnc(-c3nsc4ccccc34)o2)cc1 (field: TGI) = > 100 µM

response.value for N#Cc1c(N)nc2n[nH]c(N)c2c1-c1ccccc1 (field: TGI) = > 53.8 µM

response.value for O=C(/C=C/c1ccc(Cl)cc1)c1ccc(Cl)s1 (field: TGI) = 80.1 µM

---

Tested on: HCT-116 colon
measurement-description: NCI tumour cell line growth inhibition, 48 h
Reported TGI values for the following compounds.

>>> result("O=S(=O)(O)c1ccc2c(N=Nc3c(O)ccc4ccccc34)cccc2c1")
"> 100 µM"

Simply: Cc1ccc(NC2=CC(=O)C(=O)c3ccccc32)c(C)c1 , HCT-116 colon, TGI = 4.23 µM

Simply: COc1ccc2c3c(c(C(=O)O)oc13)C(CCC(=O)O)CC2 (stereo not given) , HCT-116 colon, TGI = > 100 µM

---

Tested on: SF-295 CNS
measurement-description: NCI tumour cell line growth inhibition, 48 h
Reported TGI values for the following compounds.

Here's what some known entries look like.
>>> result("COCCOCCOCCC(=O)NC1CC2CCC1(C)C2(C)C (stereo not given)")
"> 100 µM"
>>> result("C=CCCCCCCCCC(=O)ON(Cc1ccc(O)c(OC)c1)C(=O)C(F)(F)F")
"> 100 µM"
>>> result("Cn1c(=O)c(C(=O)NC23CC4CC(CC(C4)C2)C3)c(O)c2ccccc21")
"57.4 µM"
>>> result("CO/C(=N\\N=C(/c1ccccc1)C(F)(F)F)c1ccncc1")
"> 100 µM"
>>> result("O=C1C2C(C(=O)N1CC[Se][Se]CCN1C(=O)C3C(C1=O)[C@H]1C=C[C@@H]3C1)[C@H]1C=C[C@@H]2C1 (stereo not given in full)")
"2.42 µM"

Here is the next item to consider.
response.value for Cc1cc(NS(=O)(=O)c2ccc(NC(=O)c3ccc4nc5ccccc5c(Nc5ccc(S(=O)(=O)Nc6cc(C)on6)cc5)c4c3)cc2)no1 (field: TGI) = > 50 µM

---

Tested on: SNB-19 CNS
measurement-description: NCI tumour cell line growth inhibition, 48 h
Reported GI50 values for the following molecules.

response.value for CC1=NN(c2nc(N)nc(/C=C\c3ccccc3)n2)C(C)(C)C1 (field: GI50) = 20.3 µM

response.value for Cc1ccc(NC2=CC(=O)C(=O)c3ccccc32)c(C)c1 (field: GI50) = 3.88 µM

response.value for Cc1n(Cc2ccc3ccccc3n2)cc[n+]1Cc1ccc2ccccc2c1 (field: GI50) = 0.438 µM
